For each of the compounds below, state its pIC50.
- assay target: UniProt:P41594
- Sequence (P41594 whole entry): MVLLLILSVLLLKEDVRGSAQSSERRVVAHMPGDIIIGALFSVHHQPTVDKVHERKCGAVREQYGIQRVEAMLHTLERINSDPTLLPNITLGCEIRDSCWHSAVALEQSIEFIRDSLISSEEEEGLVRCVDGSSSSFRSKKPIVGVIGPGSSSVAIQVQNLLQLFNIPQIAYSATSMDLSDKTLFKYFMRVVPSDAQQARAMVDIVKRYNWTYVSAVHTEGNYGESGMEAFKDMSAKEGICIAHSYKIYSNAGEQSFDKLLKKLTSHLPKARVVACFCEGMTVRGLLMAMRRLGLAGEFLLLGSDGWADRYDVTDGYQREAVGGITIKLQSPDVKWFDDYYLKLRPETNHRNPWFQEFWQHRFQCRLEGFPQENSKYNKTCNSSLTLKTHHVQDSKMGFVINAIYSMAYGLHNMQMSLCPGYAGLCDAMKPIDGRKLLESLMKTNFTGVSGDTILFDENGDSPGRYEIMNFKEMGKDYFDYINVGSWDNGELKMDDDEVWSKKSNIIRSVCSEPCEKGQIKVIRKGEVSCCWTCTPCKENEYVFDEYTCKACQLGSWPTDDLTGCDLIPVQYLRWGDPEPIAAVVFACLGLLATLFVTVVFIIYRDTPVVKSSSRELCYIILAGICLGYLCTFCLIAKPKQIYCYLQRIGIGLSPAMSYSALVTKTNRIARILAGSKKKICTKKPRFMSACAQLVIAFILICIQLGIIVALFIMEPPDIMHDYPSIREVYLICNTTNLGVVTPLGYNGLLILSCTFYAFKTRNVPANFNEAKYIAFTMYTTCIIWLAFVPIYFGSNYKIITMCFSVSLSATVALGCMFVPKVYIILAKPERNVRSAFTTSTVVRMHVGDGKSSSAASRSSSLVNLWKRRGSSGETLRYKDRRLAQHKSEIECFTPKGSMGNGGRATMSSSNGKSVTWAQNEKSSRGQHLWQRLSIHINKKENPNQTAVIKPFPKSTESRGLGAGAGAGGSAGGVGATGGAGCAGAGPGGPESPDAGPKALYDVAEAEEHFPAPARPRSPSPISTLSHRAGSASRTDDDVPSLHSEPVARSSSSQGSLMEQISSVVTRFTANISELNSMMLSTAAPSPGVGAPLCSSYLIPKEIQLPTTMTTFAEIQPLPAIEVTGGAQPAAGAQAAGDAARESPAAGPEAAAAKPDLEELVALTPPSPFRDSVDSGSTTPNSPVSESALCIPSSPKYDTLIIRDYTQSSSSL
- method: Antagonistic activity against Metabotropic glutamate receptor 5 in [Ca2+] flux assay using glutamate (10 uM) as agonist
- Format: functional
In textbook form, pIC50 equals minus log to base ten of the concentration in mol/L.

**Query** Record request: pIC50 value, item Fc1cc(Nc2cccnc2)cc(-n2nnc(-c3ccccn3)n2)c1
**Result** 6.91

**Query** I would be grateful if you could share the reported pIC50 for Fc1cc(Cc2cccnc2)cc(-n2nnc(-c3ccccn3)n2)c1 .
**Result** 7.77

**Query** Fill in the blank: the reported pIC50 of Fc1cc(Sc2cccnc2)cc(-n2nnc(-c3ccccn3)n2)c1 is ____.
**Result** 7.89

**Query** Value lookup for pIC50; key = CN(c1cccnc1)c1cc(F)cc(-n2nnc(-c3ccccn3)n2)c1
**Result** 7.66

**Query** Report pIC50 for Fc1cc(Oc2cccnc2)cc(-n2nnc(-c3ccccn3)n2)c1 please.
**Result** 8.17

**Query** Need pIC50, item N#Cc1cccc(-n2nnc(-c3ccccn3)n2)c1
**Result** 7.14

**Query** Field request: pIC50 | item: c1ccc(-c2nnn(-c3ccccc3Oc3cccnc3)n2)nc1
**Result** 5.80

**Query** Fill in the blank: the reported pIC50 of c1ccc(-c2nnn(-c3cccc(Oc4cccnc4)c3)n2)nc1 is ____.
**Result** 7.52

**Query** Quick check: pIC50 of c1ccc(-c2nnn(-c3ccc(Oc4cccnc4)cc3)n2)nc1 ?
**Result** 6.13

**Query** What does the data say about its pIC50? Entry: Fc1cc(-n2nnc(-c3ccccn3)n2)cc(-n2ccc3cccnc32)c1
**Result** 7.80

**Query** Dear colleague, I am looking for the recorded pIC50 of the following compound: c1ccc(Oc2cccc(-n3nnc(-c4ccccn4)n3)c2)cc1
**Result** 5.84

**Query** Entry under review: c1ccc(Oc2cccc(-n3nnc(-c4ccccn4)n3)c2)nc1 . Reported pIC50?
**Result** 5.54

**Query** For the compound N#Cc1cc(F)cc(-n2nnc(-c3ccccn3)n2)c1 , what pIC50 is on record?
**Result** 8.41
